tested target: His-Avi-TEV-mSTING (138-341) mouse wild-type protein (Mus musculus, UniProt Q3TBT3)
Construct: made in house; host or cells: E. coli Rosetta 2 (DE3), co-expressed with BirA (1-321)
Sequence (Q3TBT3 with tags, fused parts or gaps limits assumed): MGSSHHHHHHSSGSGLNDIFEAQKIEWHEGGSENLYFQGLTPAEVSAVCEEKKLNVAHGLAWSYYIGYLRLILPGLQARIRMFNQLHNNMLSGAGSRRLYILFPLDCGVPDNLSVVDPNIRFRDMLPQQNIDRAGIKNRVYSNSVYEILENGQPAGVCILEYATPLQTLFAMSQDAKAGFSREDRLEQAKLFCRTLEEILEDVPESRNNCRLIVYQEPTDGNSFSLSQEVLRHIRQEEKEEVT
assay overview: Protein thermal shift assay, STING C-terminal binding domain protein
condition summary: test compound final concentration 0.5 mM
Procedure: Each of these expression strains was added to a TB medium containing 100 μg/mL ampicillin, 50 μg/mL streptomycin, and 30 μg/mL kanamycin, cultured at 37° C., then exposed to 100 μM IPTG for inducible expression, and further cultured at 16° C. […] The binding ability of each compound to the STING C-terminal binding domain proteins was evaluated by protein thermal shift assay, which uses the elevation of thermal denaturation temperature of protein as an index. […]
experimental endpoint: ΔTm at 500 µM (°C)
Just the number please, in °C, no unit attached.

Query: Report ΔTm at 500 µM for O=c1c2ncn([C@@H]3O[C@@H]4COP(=O)(S)O[C@H]5[C@@H](F)[C@H](n6cc7c8c(ncnc86)NCCC7)O[C@@H]5COP(=O)(O)O[C@@H]3[C@@H]4O)c2ncn1CCO (some centres unmarked) [53a] tested on His-Avi-TEV-mSTING (138-341) mouse wild-type protein (Mus musculus, UniProt Q3TBT3).
Reply: 14.3

Query: Report ΔTm at 500 µM for NCCNc1nc(N)c2ncn([C@@H]3O[C@@H]4COP(=O)(S)O[C@H]5[C@@H](O)[C@H](n6cc7c8c(ncnc86)NCCC7)O[C@@H]5COP(=O)(S)O[C@@H]3[C@@H]4O)c2n1 (single isomer, unassigned) tested on His-Avi-TEV-mSTING (138-341) mouse wild-type protein (Mus musculus, UniProt Q3TBT3).
Reply: 11.5

Query: Report ΔTm at 500 µM for O=c1c2ncn([C@@H]3O[C@@H]4COP(=O)(S)O[C@H]5[C@@H](F)[C@H](n6cc7c8c(ncnc86)NCCC7)O[C@@H]5COP(=O)(S)O[C@@H]3[C@@H]4F)c2ncn1CCO (single isomer, unassigned) [44a] tested on His-Avi-TEV-mSTING (138-341) mouse wild-type protein (Mus musculus, UniProt Q3TBT3).
Reply: 19.3

Query: Report ΔTm at 500 µM for O=c1[nH]cnc2c1ncn2[C@@H]1O[C@@H]2COP(=O)(S)O[C@H]3[C@@H](O)[C@H](n4cc5c6c(ncnc64)NCCC5)O[C@@H]3COP(=O)(S)O[C@@H]1[C@@H]2O (single isomer, unassigned) [25a] tested on His-Avi-TEV-mSTING (138-341) mouse wild-type protein (Mus musculus, UniProt Q3TBT3).
Reply: 16

Query: Report ΔTm at 500 µM for Nc1ncnc2c1ncn2[C@@H]1O[C@@H]2COP(=O)(S)O[C@H]3[C@@H](O)[C@H](n4cc5c6c(ncnc64)OCCC5)O[C@@H]3COP(=O)(S)O[C@@H]1[C@@H]2O (single isomer, unassigned) [20a] tested on His-Avi-TEV-mSTING (138-341) mouse wild-type protein (Mus musculus, UniProt Q3TBT3).
Reply: 12.4
